- TARGET ENTITY: T1, Macaca fascicularis PDGFRb.mmh (Macaca fascicularis)
- T1 construct: Soluble monomeric construct; also called mfPDGFRb.mmh
- T1 chain: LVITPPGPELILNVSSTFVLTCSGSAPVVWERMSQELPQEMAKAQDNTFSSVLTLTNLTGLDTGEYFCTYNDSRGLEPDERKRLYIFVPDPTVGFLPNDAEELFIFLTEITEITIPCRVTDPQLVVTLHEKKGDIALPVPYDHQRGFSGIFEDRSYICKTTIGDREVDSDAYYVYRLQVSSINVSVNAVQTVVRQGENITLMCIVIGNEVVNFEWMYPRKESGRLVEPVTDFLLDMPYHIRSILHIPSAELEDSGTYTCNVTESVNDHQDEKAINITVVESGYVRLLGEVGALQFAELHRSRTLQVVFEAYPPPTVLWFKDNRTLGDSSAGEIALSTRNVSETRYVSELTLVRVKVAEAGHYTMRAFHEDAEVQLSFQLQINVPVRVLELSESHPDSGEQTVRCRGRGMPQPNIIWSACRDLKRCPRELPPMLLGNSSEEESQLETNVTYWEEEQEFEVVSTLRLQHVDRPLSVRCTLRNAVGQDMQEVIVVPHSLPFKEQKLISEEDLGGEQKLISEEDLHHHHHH
- PROCEDURE SUMMARY: SPR, mAb captured, 37 C
Hi, to clarify the labels: 1 covers t1/2 from 4 min upward, 0 covers anything below 4 min.

INSERT INTO results (binder, class) VALUES
  ('H4H3102S (antibody, human IgG4, V domains shown, human IgG4 Fc (H4H prefix)) VH: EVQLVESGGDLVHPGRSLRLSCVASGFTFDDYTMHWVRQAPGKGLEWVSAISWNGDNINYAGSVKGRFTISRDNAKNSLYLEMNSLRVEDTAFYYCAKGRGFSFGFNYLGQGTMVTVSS VL: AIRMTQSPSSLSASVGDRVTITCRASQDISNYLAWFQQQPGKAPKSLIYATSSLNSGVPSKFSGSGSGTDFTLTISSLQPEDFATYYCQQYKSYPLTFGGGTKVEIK', 1),
  ('H4H3103S (antibody, human IgG4, V domains shown, human IgG4 Fc (H4H prefix)) VH: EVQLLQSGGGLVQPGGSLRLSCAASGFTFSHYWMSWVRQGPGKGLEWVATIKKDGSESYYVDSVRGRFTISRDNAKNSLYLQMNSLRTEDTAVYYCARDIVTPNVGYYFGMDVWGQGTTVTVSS VL: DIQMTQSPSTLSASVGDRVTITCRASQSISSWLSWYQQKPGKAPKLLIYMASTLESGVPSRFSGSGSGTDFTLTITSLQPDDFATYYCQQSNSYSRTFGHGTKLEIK', 0),
  ('H4H3095S (antibody, human IgG4, V domains shown, human IgG4 Fc (H4H prefix)) VH: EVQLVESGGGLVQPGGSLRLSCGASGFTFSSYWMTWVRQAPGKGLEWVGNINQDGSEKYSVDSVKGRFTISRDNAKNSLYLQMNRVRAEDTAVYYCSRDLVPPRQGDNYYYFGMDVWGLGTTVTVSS VL: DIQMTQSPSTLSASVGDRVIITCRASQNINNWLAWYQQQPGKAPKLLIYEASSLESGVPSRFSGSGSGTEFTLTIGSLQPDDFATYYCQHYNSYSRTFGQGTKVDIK', 0),
  ('H4H3106S (antibody, human IgG4, V domains shown, human IgG4 Fc (H4H prefix)) VH: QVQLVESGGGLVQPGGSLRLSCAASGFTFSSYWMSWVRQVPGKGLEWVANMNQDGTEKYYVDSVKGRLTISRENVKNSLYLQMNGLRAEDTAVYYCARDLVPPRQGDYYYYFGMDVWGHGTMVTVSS VL: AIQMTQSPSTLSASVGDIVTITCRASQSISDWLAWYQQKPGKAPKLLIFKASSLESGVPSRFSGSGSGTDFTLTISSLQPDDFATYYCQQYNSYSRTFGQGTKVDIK', 0),
  ('H4H3098S (antibody, human IgG4, V domains shown, human IgG4 Fc (H4H prefix)) VH: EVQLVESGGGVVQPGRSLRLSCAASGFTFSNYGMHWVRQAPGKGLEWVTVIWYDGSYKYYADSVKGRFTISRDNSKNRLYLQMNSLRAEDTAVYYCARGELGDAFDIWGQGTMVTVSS VL: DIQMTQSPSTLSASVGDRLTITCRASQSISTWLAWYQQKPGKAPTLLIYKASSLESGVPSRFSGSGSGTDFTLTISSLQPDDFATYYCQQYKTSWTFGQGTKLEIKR', 0),
  ('H4H3094P (antibody, human IgG4, V domains shown, also called H4H3394P) VH: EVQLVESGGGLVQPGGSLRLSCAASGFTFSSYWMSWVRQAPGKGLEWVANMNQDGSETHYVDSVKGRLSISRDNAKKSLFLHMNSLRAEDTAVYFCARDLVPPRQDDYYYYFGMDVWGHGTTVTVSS VL: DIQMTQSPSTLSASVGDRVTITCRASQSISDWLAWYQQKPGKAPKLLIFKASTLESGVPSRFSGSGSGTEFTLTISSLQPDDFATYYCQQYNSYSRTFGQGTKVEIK', 1);
